tested on: PBMC cells; experiment: In vitro transfection of PBMC cells with EGFP mRNA LNP preparation (flow cytometry); type: cell-based; settings: PBMCs, LNP preparation added with ApoE4
The label is Criterion met for Positive Rate (EGFP) below 80% and Criterion not met for Positive Rate (EGFP) equal to or exceeding 80%.

Solved entries:
- Molecule: "CCCCCCCCCCCCC(O)CN(CCN1CCN(CCN(CCN(CC(O)CCCCCCCCCCCC)CC(O)CCCCCCCCCCCC)CCN(CC(O)CCCCCCCCCCCC)CC(O)CCCCCCCCCCCC)CC1)CC(O)CCCCCCCCCCCC (centres unmarked)"
  Label value: "Criterion met"
- Molecule: "CCCCCCCCCCCCC(O)CN(CCOCCOCCN(CCOCCOCCN(CC(O)CCCCCCCCCCCC)CC(O)CCCCCCCCCCCC)CCN1CCN(C)CC1)CC(O)CCCCCCCCCCCC (centres unmarked)"
  Label value: "Criterion met"
- Molecule: "CCCCCCCCCCC(O)CN(CCOCCN(CCOCCN(CC(O)CCCCCCCCCC)CC(O)CCCCCCCCCC)CCN1CCN(CCOCCN(CC(O)CCCCCCCCCC)CC(O)CCCCCCCCCC)CC1)CC(O)CCCCCCCCCC (centres unmarked)"
  Label value: "Criterion not met"

(Q) Quick check: does CCCCCCCCCCCCCCC(O)CN(CCN1CCN(CCN(CCN(CC(O)CCCCCCCCCCCCCC)CC(O)CCCCCCCCCCCCCC)CCN(CC(O)CCCCCCCCCCCCCC)CC(O)CCCCCCCCCCCCCC)CC1)CC(O)CCCCCCCCCCCCCC (centres unmarked) have Positive Rate (EGFP) under 80%?
(A) Criterion met

(Q) Quick check: does CCCCCCCCCCCCC(O)CN(CCN(CCN1CCN(C)CC1)CCN(CC(O)CCCCCCCCCCCC)CC(O)CCCCCCCCCCCC)CC(O)CCCCCCCCCCCC (centres unmarked) have Positive Rate (EGFP) under 80%?
(A) Criterion met

(Q) Quick check: does CCCCCCCCCCCCC(O)CN(CCOCCN(CCOCCN(CC(O)CCCCCCCCCCCC)CC(O)CCCCCCCCCCCC)CCN1CCN(CCOCCN(CC(O)CCCCCCCCCCCC)CC(O)CCCCCCCCCCCC)CC1)CC(O)CCCCCCCCCCCC (centres unmarked) have Positive Rate (EGFP) under 80%?
(A) Criterion not met

(Q) Quick check: does CCCCCCCCCCC(O)CN(CCOCCOCCN(CCOCCOCCN(CC(O)CCCCCCCCCC)CC(O)CCCCCCCCCC)CCN1CCN(CCOCCOCCN(CC(O)CCCCCCCCCC)CC(O)CCCCCCCCCC)CC1)CC(O)CCCCCCCCCC (centres unmarked) have Positive Rate (EGFP) under 80%?
(A) Criterion met

(Q) Quick check: does CCCCCCCCCCCCC(O)CN(CCOCCN(CCOCCN(CC(O)CCCCCCCCCCCC)CC(O)CCCCCCCCCCCC)CCN1CCN(C)CC1)CC(O)CCCCCCCCCCCC (centres unmarked) have Positive Rate (EGFP) under 80%?
(A) Criterion met

====

assay: Entrapment efficiency of LNP preparation encapsulating EGFP mRNA; format: physicochemical; settings: LNP ionizable lipid/DOPE/cholesterol/DSPE-PEG2000 35/16/46.5/2.5 mol% encapsulating EGFP mRNA
This listing pairs compounds with measured Entrapment Efficiency.
Write it as a number; the unit % goes unstated.

// Entrapment Efficiency lookup, compound = CCCCCCCCCCCCCCCCC(O)CN(CCN(CCN1CCN(CCO)CC1)CCN(CC(O)CCCCCCCCCCCCCCCC)CC(O)CCCCCCCCCCCCCCCC)CC(O)CCCCCCCCCCCCCCCC (stereo not drawn) , result: 83.06

// Entrapment Efficiency lookup, compound = CCCCCCCCCCC(O)CN(CCOCCN(CCOCCN(CC(O)CCCCCCCCCC)CC(O)CCCCCCCCCC)CCN1CCN(CCO)CC1)CC(O)CCCCCCCCCC (stereo not drawn) , result: 92.88

// Entrapment Efficiency lookup, compound = CCCCCCCCCCCCCCCCC(O)CN(CCN1CCN(CCN(CCN(CC(O)CCCCCCCCCCCCCCCC)CC(O)CCCCCCCCCCCCCCCC)CCN(CC(O)CCCCCCCCCCCCCCCC)CC(O)CCCCCCCCCCCCCCCC)CC1)CC(O)CCCCCCCCCCCCCCCC (stereo not drawn) , result: 90.56

====

tested on: DC2.4 cells; experiment: In vitro transfection of DC2.4 cells with EGFP mRNA LNP preparation (flow cytometry); assay type: cell-based, mouse; details: DC2.4 cells, EGFP mRNA LNP, 200 ng mRNA per well, flow cytometry
The label is y for Positive Rate (EGFP) below 70% and n for Positive Rate (EGFP) equal to or exceeding 70%.

Solved entries:
- Molecule: "CCCCCCCCCCCCCCCCC(O)CN(CCOCCN(CCOCCN(CC(O)CCCCCCCCCCCCCCCC)CC(O)CCCCCCCCCCCCCCCC)CCN1CCN(CCO)CC1)CC(O)CCCCCCCCCCCCCCCC (centres unmarked) [J-C18]"
  Label value: "y"
- Molecule: "CCCCCCCCCCCCC(O)CN(CCOCCOCCN(CCOCCOCCN(CC(O)CCCCCCCCCCCC)CC(O)CCCCCCCCCCCC)CCN1CCN(C)CC1)CC(O)CCCCCCCCCCCC (centres unmarked) [G-C14]"
  Label value: "y"
- Molecule: "CCCCCCCCCCCCC(O)CN(CCN(CCN1CCN(C)CC1)CCN(CC(O)CCCCCCCCCCCC)CC(O)CCCCCCCCCCCC)CC(O)CCCCCCCCCCCC (centres unmarked) [E-C14]"
  Label value: "n"
- Molecule: "CCCCCCCCCCCCCCC(O)CN(CCOCCOCCOCCN(CCOCCOCCOCCN(CC(O)CCCCCCCCCCCCCC)CC(O)CCCCCCCCCCCCCC)CCN1CCN(CCO)CC1)CC(O)CCCCCCCCCCCCCC [L-C16]"
  Label value: "y"

Let us examine a further case.
(Q) Quick check: does CCCCCCCCCCCCCCC(O)CN(CCN1CCN(CCN(CCN(CC(O)CCCCCCCCCCCCCC)CC(O)CCCCCCCCCCCCCC)CCN(CC(O)CCCCCCCCCCCCCC)CC(O)CCCCCCCCCCCCCC)CC1)CC(O)CCCCCCCCCCCCCC (centres unmarked) [A-C16] have Positive Rate (EGFP) under 70%?
(A) y

====

tested on: DC2.4 cells; experiment: In vitro transfection of DC2.4 cells with EGFP mRNA LNP preparation (flow cytometry); format: cell-based, mouse; settings: DC2.4 cells, EGFP mRNA LNP, 200 ng mRNA per well, flow cytometry
This listing pairs compounds with measured Cell Viability.

- Compound: "CCCCCCCCCCC(O)CN(CCOCCOCCN(CCOCCOCCN(CC(O)CCCCCCCCCC)CC(O)CCCCCCCCCC)CCN1CCN(C)CC1)CC(O)CCCCCCCCCC (stereo not drawn)"
  Cell Viability: "92.9%"
- Compound: "CCCCCCCCCCCCC(O)CN(CCOCCN(CCOCCN(CC(O)CCCCCCCCCCCC)CC(O)CCCCCCCCCCCC)CCN1CCN(CCO)CC1)CC(O)CCCCCCCCCCCC (stereo not drawn)"
  Cell Viability: ">99.0%"
- Compound: "CCCCCCCCCCCCCCCCC(O)CN(CCOCCOCCN(CCOCCOCCN(CC(O)CCCCCCCCCCCCCCCC)CC(O)CCCCCCCCCCCCCCCC)CCN1CCN(CCO)CC1)CC(O)CCCCCCCCCCCCCCCC (stereo not drawn)"
  Cell Viability: ">99.0%"

// Cell Viability lookup, compound = CCCCCCCCCCCCCCCCC(O)CN(CCN1CCN(CCN(CCN(CC(O)CCCCCCCCCCCCCCCC)CC(O)CCCCCCCCCCCCCCCC)CCN(CC(O)CCCCCCCCCCCCCCCC)CC(O)CCCCCCCCCCCCCCCC)CC1)CC(O)CCCCCCCCCCCCCCCC (stereo not drawn) , result: 93.0%

// Cell Viability lookup, compound = CCCCCCCCCCCCCCCCC(O)CC(CCOCCOCCOCCN(CCOCCOCCOCCN(CC(O)CCCCCCCCCCCCCCCC)CC(O)CCCCCCCCCCCCCCCC)CCN1CCN(CCOCCOCCOCCN(CC(O)CCCCCCCCCCCCCCCC)CC(O)CCCCCCCCCCCCCCCC)CC1)CC(O)CCCCCCCCCCCCCCCC (stereo not drawn) , result: 81.5%

// Cell Viability lookup, compound = CCCCCCCCCCCCC(O)CN(CCOCCN(CCOCCN(CC(O)CCCCCCCCCCCC)CC(O)CCCCCCCCCCCC)CCN1CCN(C)CC1)CC(O)CCCCCCCCCCCC (stereo not drawn) , result: 93.2%

====

experiment: Size and polydispersity index PDI of lipid nanoparticles (Malvern Zetasizer Nano ZS); format: physicochemical; details: LNP ionizable lipid/DOPE/cholesterol/DSPE-PEG2000 35/16/46.5/2.5 mol% encapsulating EGFP mRNA; in nm (unit assumed)
The label is 1 for Particle Size below 100 and -1 for Particle Size equal to or exceeding 100.

- Compound: "CCCCCCCCCCCCCCCCC(O)CN(CCOCCN(CCOCCN(CC(O)CCCCCCCCCCCCCCCC)CC(O)CCCCCCCCCCCCCCCC)CCN1CCN(CCO)CC1)CC(O)CCCCCCCCCCCCCCCC (centres unmarked)"
  Label value: 1

(Q) Quick check: does CCCCCCCCCCCCC(O)CN(CCOCCOCCN(CCOCCOCCN(CC(O)CCCCCCCCCCCC)CC(O)CCCCCCCCCCCC)CCN1CCN(CCO)CC1)CC(O)CCCCCCCCCCCC (centres unmarked) have Particle Size under 100?
(A) -1

(Q) Quick check: does CCCCCCCCCCC(O)CN(CCOCCOCCN(CCOCCOCCN(CC(O)CCCCCCCCCC)CC(O)CCCCCCCCCC)CCN1CCN(C)CC1)CC(O)CCCCCCCCCC (centres unmarked) have Particle Size under 100?
(A) 1

(Q) Quick check: does CCCCCCCCCCCCCCC(O)CN(CCOCCOCCOCCN(CCOCCOCCOCCN(CC(O)CCCCCCCCCCCCCC)CC(O)CCCCCCCCCCCCCC)CCN1CCN(CCO)CC1)CC(O)CCCCCCCCCCCCCC (centres unmarked) have Particle Size under 100?
(A) -1

(Q) Quick check: does CCCCCCCCCCCCCCC(O)CN(CCN(CCN1CCN(CCO)CC1)CCN(CC(O)CCCCCCCCCCCCCC)CC(O)CCCCCCCCCCCCCC)CC(O)CCCCCCCCCCCCCC (centres unmarked) have Particle Size under 100?
(A) 1
